Exercise: for every item that follows, state its recorded IC50.
- target.or.system: UniProt:Q8IXJ6
- protocol.details: Inhibition of human recombinant C-terminal His-tagged SIRT2 (13 to 319 amino acid) after 45 mins by spectrophotometry relative to control
Give bare numbers, in µM.

CCOC(=O)c1ccc2c(c1)nc(-c1ccc(C)cc1)n2-c1ccccc1 :: 60.6
CCOC(=O)c1ccc2c(c1)nc(-c1ccc(N(C)C)cc1)n2CCCN1CCCC1=O :: 52.8

Data request, read-out IC50, for CCOC(=O)c1ccc2c(c1)nc(-c1ccc(N(C)C)cc1)n2-c1ccccc1
26.9

----------
- target.or.system: NAD-dependent protein deacetylase sirtuin-2 (Homo sapiens) (UniProt Q8IXJ6)
- Sequence (whole entry): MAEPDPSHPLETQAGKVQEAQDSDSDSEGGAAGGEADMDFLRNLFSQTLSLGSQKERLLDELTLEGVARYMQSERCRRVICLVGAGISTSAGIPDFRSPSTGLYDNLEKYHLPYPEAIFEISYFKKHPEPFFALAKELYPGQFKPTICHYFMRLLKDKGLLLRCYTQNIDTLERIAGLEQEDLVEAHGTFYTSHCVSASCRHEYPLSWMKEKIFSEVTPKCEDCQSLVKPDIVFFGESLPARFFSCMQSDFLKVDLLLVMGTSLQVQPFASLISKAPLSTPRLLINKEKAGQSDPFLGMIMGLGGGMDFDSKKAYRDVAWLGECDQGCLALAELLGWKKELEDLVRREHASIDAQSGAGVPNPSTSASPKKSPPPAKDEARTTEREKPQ
- protocol.details: Inhibition of human recombinant C-terminal His-tagged SIRT2 (13 to 319 amino acid) at 50 uM after 45 mins by spectrophotometry relative to control
quantity.kind: inhibition (%)
Answers are plain numbers, in %.

Quick request: inhibition for each listed item, please.
1. CCOC(=O)c1ccc2c(c1)nc(-c1ccc(C)cc1)n2-c1ccccc1
2. CCOC(=O)c1ccc2c(c1)nc(-c1ccc(Cl)cc1)n2-c1ccccc1
3. CCOC(=O)c1ccc2c(c1)nc(-c1ccccc1)n2CCCN1CCCC1=O
4. CCOC(=O)c1ccc2c(c1)nc(-c1ccc([N+](=O)[O-])cc1)n2CCCN1CCCC1=O
5. CCOC(=O)c1ccc2c(c1)nc(-c1ccc([N+](=O)[O-])cc1)n2-c1ccccc1
6. CCOC(=O)c1ccc2c(c1)nc(-c1ccc(O)cc1)n2CCCN1CCCC1=O

1. 50.8
2. 32.5
3. 43.9
4. 43
5. 48
6. 43.8

Quick request: inhibition for each listed item, please.
1. CN(C)CCCCC(=O)Nc1ccc(NC(=S)NC(=O)c2ccc(C(C)(C)C)cc2)cc1
2. CCOC(=O)c1ccc2c(c1)nc(-c1ccc(N(C)C)cc1)n2CCCN1CCCC1=O
3. CCOC(=O)c1ccc2c(c1)nc(-c1ccc(Br)cc1)n2-c1ccccc1
4. CCOC(=O)c1ccc2c(c1)nc(-c1ccccc1)n2-c1ccccc1
5. CCOC(=O)c1ccc2c(c1)nc(-c1ccc(C(F)(F)F)cc1)n2-c1ccccc1
6. O=c1[nH]c(=S)[nH]c(-c2ccccc2)c1Cc1c(O)ccc2ccccc12
7. CCOC(=O)c1ccc2c(c1)nc(-c1ccc(C)cc1)n2CCCN1CCCC1=O
8. CCOC(=O)c1ccc2c(c1)nc(-c1ccc(C(F)(F)F)cc1)n2CCCN1CCCC1=O

1. 66.2
2. 57.9
3. 41.3
4. 34.3
5. 45.5
6. 62
7. 45.4
8. 33.2

Quick request: inhibition for each listed item, please.
1. CCOC(=O)c1ccc2c(c1)nc(-c1ccc(Br)cc1)n2CCCN1CCCC1=O
2. CCOC(=O)c1ccc2c(c1)nc(-c1ccc(N(C)C)cc1)n2-c1ccccc1
3. CCOC(=O)c1ccc2c(c1)nc(-c1ccc(Cl)cc1)n2CCCN1CCCC1=O
4. CCOC(=O)c1ccc2c(c1)nc(-c1ccc(O)cc1)n2-c1ccccc1

1: 40.1; 2: 71.7; 3: 34.5; 4: 22.9
